Test system: Hela
assay procedure: MTT cell viability assay, Hela
Type: cell-based
condition context: Homo sapiens, HeLa, 48 h, read-out: IC50(μM) Hela, MTT, 48 h, Hela
Listed here are molecules together with their documented IC50.

IN: Dear colleague, I am looking for the recorded IC50 of the following molecule: COc1cc(OC)c(C(=O)/C=C/c2ccc(OCc3ccccc3)cc2)c(OC)c1
OUT: > 100 µM

***
IN: Dear colleague, I am looking for the recorded IC50 of the following molecule: COc1cc(OC)c(C(=O)/C=C/c2cn(C)c3ccccc23)c(OC)c1
OUT: > 100 µM

IN: Field entry: COc1cc(OC)c(C(=O)/C=C/c2ccc(OCc3ccc(Br)cc3)cc2)c(OC)c1
OUT: > 100 µM
